pKi: −log10 of the molar value.
The following compounds were reported with pKi values on 5-hydroxytryptamine receptor 6 (Homo sapiens, UniProt P50406) in different studies.
Sequence (P50406 whole entry): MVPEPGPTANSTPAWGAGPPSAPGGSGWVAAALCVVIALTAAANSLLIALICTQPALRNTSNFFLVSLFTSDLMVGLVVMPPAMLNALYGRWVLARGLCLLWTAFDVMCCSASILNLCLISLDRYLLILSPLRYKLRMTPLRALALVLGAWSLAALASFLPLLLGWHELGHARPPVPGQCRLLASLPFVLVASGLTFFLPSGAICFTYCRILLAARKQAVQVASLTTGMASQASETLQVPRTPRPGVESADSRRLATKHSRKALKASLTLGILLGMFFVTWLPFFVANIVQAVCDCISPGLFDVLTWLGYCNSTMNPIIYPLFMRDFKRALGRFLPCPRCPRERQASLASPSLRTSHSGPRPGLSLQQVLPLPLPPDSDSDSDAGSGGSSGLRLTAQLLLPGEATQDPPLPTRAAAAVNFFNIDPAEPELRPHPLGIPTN
Property: pKi

compound=N[C@H](CCS(=O)O)C(=O)O property=pKi measurement="< 5.00"
compound=COc1ccccc1N1CCN(CCN(C(=O)C2CCCCC2)c2ccccn2)CC1 property=pKi measurement="< 5.00"
compound=CSCC[C@@H](N)C(=O)O property=pKi measurement="< 5.00"
compound=N[C@H](CCS(=O)(=O)O)C(=O)O property=pKi measurement="< 5.00"
compound=C[C@@H]1O[C@@H](OC[C@H]2O[C@@H](Oc3c(-c4ccc(O)c(O)c4)oc4cc(O)cc(O)c4c3=O)[C@H](O)[C@@H](O)[C@@H]2O)[C@H](O)[C@H](O)[C@H]1O property=pKi measurement="< 5.00"
compound="CC(CC1=C2c3ccccc3S(=O)(=O)C2c2ccc(OCC3CCCCC3)cc21)N(C)C (stereo not given)" property=pKi measurement="< 6.00"
compound=Cc1cccc(S(=O)(=O)N(C)[C@H](C)CCN2CCC(C)CC2)c1 property=pKi measurement="< 5.00"
compound="NC(CS(=O)O)C(=O)O (stereo not given)" property=pKi measurement="< 5.00"
compound="CC(C)=CCC[C@]1(C)[C@@H](CC=C(C)C)C[C@]2(CC=C(C)C)C(=O)C(CC=C(C)C)C(=O)[C@]1(C(=O)C(C)C)C2=O (stereo not given in full)" property=pKi measurement="< 5.00"
compound=CN(C)CCOc1c2n(c3cccc(F)c13)S(=O)(=O)c1ccccc1-2 property=pKi measurement="< 6.30"
